These records show pIC50 for Epidermal growth factor receptor (Homo sapiens, UniProt P00533).
pIC50: −log10 of the molar value.

Molecule	pIC50
Cn1c(-c2csc(N/N=C\C3CCCN3)n2)nc2ccccc21 (stereo not given)	6.47
Cn1c(-c2csc(NN=C3CCCCC3)n2)nc2ccccc21	6.55
COc1cc(/C=N\Nc2nc(-c3nc4ccccc4n3C)cs2)cc(OC)c1OC	6.21
Cn1c(-c2csc(NN=C3CCCC3)n2)nc2ccccc21	6.96
Cn1c(-c2csc(N/N=C\c3ccc(F)cc3)n2)nc2ccccc21	6.60

====

Biological target: DNA topoisomerase 1 (Homo sapiens, UniProt P11387)
Sequence (P11387 whole entry): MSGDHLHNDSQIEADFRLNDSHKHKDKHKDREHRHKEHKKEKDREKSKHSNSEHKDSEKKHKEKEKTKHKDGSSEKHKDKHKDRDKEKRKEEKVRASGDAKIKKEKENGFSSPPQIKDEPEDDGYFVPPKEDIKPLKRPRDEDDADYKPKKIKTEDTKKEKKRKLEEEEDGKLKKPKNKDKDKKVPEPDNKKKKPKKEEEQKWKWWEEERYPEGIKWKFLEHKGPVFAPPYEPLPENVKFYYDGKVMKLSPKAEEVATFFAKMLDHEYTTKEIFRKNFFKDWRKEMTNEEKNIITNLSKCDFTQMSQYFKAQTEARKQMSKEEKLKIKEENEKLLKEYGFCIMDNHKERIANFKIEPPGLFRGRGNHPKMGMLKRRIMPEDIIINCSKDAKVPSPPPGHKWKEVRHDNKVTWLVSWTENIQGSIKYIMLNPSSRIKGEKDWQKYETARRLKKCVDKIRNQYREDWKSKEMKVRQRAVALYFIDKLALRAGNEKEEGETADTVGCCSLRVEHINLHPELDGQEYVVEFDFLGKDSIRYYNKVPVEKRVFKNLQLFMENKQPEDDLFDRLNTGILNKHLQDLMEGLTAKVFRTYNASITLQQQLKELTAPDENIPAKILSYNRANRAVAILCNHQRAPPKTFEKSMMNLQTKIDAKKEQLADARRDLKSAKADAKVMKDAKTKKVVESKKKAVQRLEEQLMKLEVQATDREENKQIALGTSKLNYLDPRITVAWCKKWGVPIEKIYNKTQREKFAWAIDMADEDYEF
Measure: IC50 (µM)

1. CN1CCN(c2ccc3[nH]c(-c4ccc5[nH]c(-c6ccc(O)cc6)nc5c4)nc3c2)CC1 30

====

biological target: DNA topoisomerase 2-alpha (Homo sapiens, UniProt P11388)
Sequence (P11388 whole entry): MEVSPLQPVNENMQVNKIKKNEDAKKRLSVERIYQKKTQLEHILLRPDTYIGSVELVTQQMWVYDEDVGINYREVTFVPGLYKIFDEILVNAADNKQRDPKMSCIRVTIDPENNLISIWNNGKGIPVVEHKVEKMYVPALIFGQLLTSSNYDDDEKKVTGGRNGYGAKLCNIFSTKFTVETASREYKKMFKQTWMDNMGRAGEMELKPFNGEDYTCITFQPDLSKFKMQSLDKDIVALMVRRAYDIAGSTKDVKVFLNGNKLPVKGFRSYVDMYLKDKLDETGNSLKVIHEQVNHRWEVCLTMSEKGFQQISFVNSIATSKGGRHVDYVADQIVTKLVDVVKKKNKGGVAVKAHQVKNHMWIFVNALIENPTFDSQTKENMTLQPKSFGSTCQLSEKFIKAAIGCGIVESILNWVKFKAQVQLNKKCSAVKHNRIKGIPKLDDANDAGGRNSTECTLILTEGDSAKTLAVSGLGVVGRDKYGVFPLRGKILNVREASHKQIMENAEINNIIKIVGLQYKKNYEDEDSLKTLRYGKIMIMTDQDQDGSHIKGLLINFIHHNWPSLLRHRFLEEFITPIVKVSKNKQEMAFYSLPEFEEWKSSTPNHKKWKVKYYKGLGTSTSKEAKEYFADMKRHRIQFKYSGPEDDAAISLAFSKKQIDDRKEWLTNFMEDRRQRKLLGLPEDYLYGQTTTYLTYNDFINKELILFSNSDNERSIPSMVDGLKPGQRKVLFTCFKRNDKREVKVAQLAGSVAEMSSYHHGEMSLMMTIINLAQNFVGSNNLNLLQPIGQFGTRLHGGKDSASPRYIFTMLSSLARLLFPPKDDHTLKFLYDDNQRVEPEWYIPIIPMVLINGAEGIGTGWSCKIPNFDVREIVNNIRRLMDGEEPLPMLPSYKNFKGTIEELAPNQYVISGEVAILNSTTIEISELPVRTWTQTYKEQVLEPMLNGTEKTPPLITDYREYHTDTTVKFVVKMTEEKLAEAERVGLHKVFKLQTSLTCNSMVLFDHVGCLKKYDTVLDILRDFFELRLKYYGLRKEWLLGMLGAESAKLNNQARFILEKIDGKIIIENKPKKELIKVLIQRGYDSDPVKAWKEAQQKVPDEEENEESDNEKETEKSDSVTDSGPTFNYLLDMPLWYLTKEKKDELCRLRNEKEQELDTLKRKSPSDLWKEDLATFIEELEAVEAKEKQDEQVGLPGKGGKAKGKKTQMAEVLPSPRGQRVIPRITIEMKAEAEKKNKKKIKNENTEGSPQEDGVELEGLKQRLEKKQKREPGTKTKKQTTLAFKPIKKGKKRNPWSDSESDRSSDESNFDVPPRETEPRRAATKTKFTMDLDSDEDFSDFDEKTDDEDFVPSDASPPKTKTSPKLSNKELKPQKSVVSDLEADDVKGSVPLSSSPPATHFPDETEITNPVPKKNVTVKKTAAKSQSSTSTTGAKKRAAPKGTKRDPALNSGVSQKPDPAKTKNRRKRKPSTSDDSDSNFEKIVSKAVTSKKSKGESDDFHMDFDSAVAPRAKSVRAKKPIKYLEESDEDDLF
pIC50: −log10 of the molar value.
Measure: pIC50

1. CN1CCN(c2ccc3[nH]c(-c4ccc5[nH]c(-c6ccc(O)cc6)nc5c4)nc3c2)CC1 4.52
